All values here come from ChEMBL document CHEMBL1817608.

tested on: J774; experiment: Inhibition of LPS-stimulated IL-6 production in mouse J774 cells at 100 uM by ELISA
Note to self: values exactly at 50% are condition met. So inhibition at 100 µM at or above 50% is condition met, below is condition not met.

compound: Cc1c(F)c(=O)oc2cc(O)ccc12
label: condition not met
//
compound: O=c1ccc2ccc(O)cc2o1 [UMBELLIFERONE]
label: condition not met
//
compound: COc1c(O)ccc2c(-c3ccccc3)cc(=O)oc12
label: condition not met
//
compound: Cc1cc(=O)oc2cc(O)ccc12 [HYMECROMONE]
label: condition not met
//
compound: COc1c(O)ccc2c(C)c(F)c(=O)oc12
label: condition not met
//
compound: O=c1cc(-c2ccccc2)c2ccc(O)cc2o1
label: condition met
//
compound: Cc1c(C)c2ccc(O)cc2oc1=O
label: condition met
//
compound: Cc1cc(O)cc2oc(=O)cc(C)c12
label: condition met
//
compound: CCCc1cc(=O)oc2c(OC)c(O)ccc12
label: condition met
//
compound: Cc1cc(=O)oc2c(C)c(O)ccc12
label: condition met
//
compound: CCc1c(C)c2ccc(O)c(C)c2oc1=O
label: condition met
//
compound: Cc1cc(O)cc2oc(=O)ccc12
label: condition not met
//
compound: CCCc1cc(=O)oc2cc(O)ccc12
label: condition met
//
compound: Cc1c(C)c2c(C)cc(O)cc2oc1=O
label: condition met
//
compound: CCCc1cc(=O)oc2cc(O)cc(C)c12
label: condition met
//
compound: O=c1cc(-c2ccccc2F)c2ccc(O)cc2o1
label: condition met

---

test system: J774; experiment: Cytotoxicity against mouse J774 cells at 100 uM by XTT assay; format: cell-based; conditions: j774, 100 µM
property: Activity

entry.smiles: Cc1cc(O)cc2oc(=O)cc(C)c12
property: Activity
val: Non-toxic
--
entry.smiles: Cc1c(F)c(=O)oc2cc(O)ccc12
property: Activity
val: Non-toxic
--
entry.smiles: Cc1c(C)c2ccc(O)cc2oc1=O
property: Activity
val: Non-toxic
